Biological target: Caspase-3 (Homo sapiens)
Sequence (P42574 whole entry): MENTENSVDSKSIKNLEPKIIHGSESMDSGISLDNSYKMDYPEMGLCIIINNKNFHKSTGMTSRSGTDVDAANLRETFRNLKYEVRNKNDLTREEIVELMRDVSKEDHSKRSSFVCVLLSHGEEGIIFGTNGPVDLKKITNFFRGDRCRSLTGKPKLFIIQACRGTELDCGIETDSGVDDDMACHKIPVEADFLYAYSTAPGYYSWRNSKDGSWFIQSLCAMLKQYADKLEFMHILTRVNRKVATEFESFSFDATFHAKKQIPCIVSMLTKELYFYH
Assay: Inhibition of recombinant human caspase-3 expressed in Escherichia coli using Ac-DEVD-AMC as substrate preincubated for 30 mins before substrate addition measured after 2 hrs
pIC50: −log10 of the molar value.
measure: pIC50

# record_smiles, target_of_assay, pIC50
records = [
    ("O=C1C(=O)N(Cc2ccc(OCCF)cc2)c2ccc(S(=O)(=O)N3CCC[C@H]3COc3ccccc3)cc21", "Caspase-3 (Homo sapiens)", 8.21),
    ("O=C1C(=O)N(Cc2ccc([N+](=O)[O-])cc2)c2ccc(S(=O)(=O)N3CCC[C@H]3CF)cc21", "Caspase-3 (Homo sapiens)", 8.20),
    ("O=C1C(=O)N(Cc2ccccc2I)c2ccc(S(=O)(=O)N3CCC[C@H]3CF)cc21", "Caspase-3 (Homo sapiens)", 8.02),
    ("O=C1C(=O)N(Cc2ccc(F)cc2)c2ccc(S(=O)(=O)N3CCC[C@H]3CF)cc21", "Caspase-3 (Homo sapiens)", 7.82),
    ("O=C1C(=O)N(Cc2cccc([N+](=O)[O-])c2)c2ccc(S(=O)(=O)N3CCC[C@H]3CF)cc21", "Caspase-3 (Homo sapiens)", 7.89),
]

1. O=C1C(=O)N(Cc2ccccc2[N+](=O)[O-])c2ccc(S(=O)(=O)N3CCC[C@H]3CF)cc21
2. O=C1C(=O)N(Cc2ccc(Br)cc2)c2ccc(S(=O)(=O)N3CCC[C@H]3CF)cc21
3. COC[C@@H]1CCCN1S(=O)(=O)c1ccc2c(c1)C(=O)C(=O)N2Cc1ccc(OC)cc1
stdin: Could you please order the items by pIC50, going from the lowest number to the highest? Answer format: the labels, in the requested order.
stdout: 3, 2, 1
